# Experimental Target: Luciferin 4-monooxygenase (Photinus pyralis) (UniProt P08659)
# Sequence (P08659 whole entry, looked up): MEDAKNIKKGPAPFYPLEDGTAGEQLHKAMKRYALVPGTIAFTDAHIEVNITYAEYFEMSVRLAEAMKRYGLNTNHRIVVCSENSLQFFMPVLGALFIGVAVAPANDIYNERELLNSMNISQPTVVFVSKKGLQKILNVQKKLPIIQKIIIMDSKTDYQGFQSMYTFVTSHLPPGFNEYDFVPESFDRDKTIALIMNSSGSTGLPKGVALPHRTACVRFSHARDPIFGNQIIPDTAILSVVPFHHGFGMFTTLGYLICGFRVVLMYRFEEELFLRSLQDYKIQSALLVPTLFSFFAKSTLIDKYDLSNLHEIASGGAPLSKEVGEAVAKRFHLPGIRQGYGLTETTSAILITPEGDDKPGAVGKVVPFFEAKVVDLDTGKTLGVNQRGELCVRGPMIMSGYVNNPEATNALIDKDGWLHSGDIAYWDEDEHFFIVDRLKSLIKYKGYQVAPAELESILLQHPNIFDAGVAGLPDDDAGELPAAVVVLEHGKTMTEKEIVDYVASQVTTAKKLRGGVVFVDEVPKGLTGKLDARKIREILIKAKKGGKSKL
# Experiment: firefly luciferase enzyme inhibitors, primary screen, biochemical, luminescence, purified enzyme, 2006 set (AID 1141);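 also: cell-free assay with purified firefly luciferase at 100 ng per well in PBS; test concentration not given here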
# Setup Conditions: SteadyGlo luminescence, 30 min, higher = more signal, called active from +8 up or from −8 down
Observable: z-score
No unit in the answer, please; the number alone is enough.

Recorded z-score for CO[C@]12C=C(Br)[C@@H](C[C@@H]1c1ccccc1)[C@@]1(CO1)C2=O , please?
-0.876

Which z-score value is on record for N#Cc1ccc(NN2C(C(O)CCc3ccccc3)C=CC3C(=O)N(c4ccccc4)C(=O)C32)cc1 (stereo unspecified) ?
-0.98

Could you share which z-score value was measured for Cc1ccc([C@@H]2CC=C(C(=O)O)[C@H](c3ccccc3)N2S(=O)(=O)c2ccc(C)cc2)cc1 ?
1.33

Looking for the measured z-score of O=C1OCCC/C=C\[C@H]2OC34C=CCN(CCN5CCOCC5)C(=O)[C@H]3N(CCCCCO)C(=O)[C@@H]4C12 (stereo partly specified) , can you help?
0.32

Return reported z-score; argument: O=C/C=C/c1ccc(/C=C/c2ccccc2)cc1
-3.83

Look up z-score for this molecule: C=CC[C@]1(C(=O)O)N=C(c2ccc(OCCCO)cc2)O[C@H]1c1ccccc1N=[N+]=[N-]
-12.3

So what does the record say about z-score for CC(C)[Si](OCCCNS(=O)(=O)c1ccc(Br)cc1)(C(C)C)C(C)C ?
-1.22

Given the entry O=C1c2ccccc2[C@](Cc2ccccc2I)(C(=O)NCC(F)(F)F)[C@H](c2ccc(CO)cc2)N1Cc1ccccc1C(F)(F)F , report its measured z-score.
-0.956

What value of measured z-score is listed for CC(C)CN1C(=O)[C@@]2(Cc3ccccc31)c1ccccc1C(=O)N(C1CCCCC1)[C@H]2c1ccc(CO)cc1 ?
-0.275

# query: z-score of entry CCN1C(C)=C(C(=O)OC)[C@@H](c2ccccc2)N2C(=O)[C@](O)(C(=O)OC)[C@@H](c3ccccc3)C(C(=O)c3ccccc3)=C12
-1.2

# query: z-score of entry O=C(CS)NCCCCCNC(=O)[C@H]1C[C@H]2C(=O)N3CCC[C@H]3C(=O)N2[C@H]1c1ccc(O)cc1
-1.75

----------
# Tested on: Wnt5a (protein binding on small-molecule microarray)
# Experiment: Wnt5a binders on small-molecule microarray, primary screen, biophysical, 635/667 nm fluorescence (AID 1142);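 also: fluorescence read at 667 nm with signal to noise per printed feature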
# Setup Conditions: 635 nm fluorescence, higher = more signal
Each record here notes measured composite z-score.
Just the number, please.

Solved cases below.
[[record]]
compound = "O=C1C2C=CC(C(O)Cc3ccccc3)N(Nc3ccc([N+](=O)[O-])cc3)C2C(=O)N1c1ccccc1 (stereo not drawn)"
endpoint_result = 0.331

[[record]]
compound = "O=C1C[C@@](C(=O)NC2CC2)(c2ccc([N+](=O)[O-])cc2)[C@@H](c2ccc(CO)cc2I)N1CC12CC3CC(CC(C3)C1)C2"
endpoint_result = 0.157


Then this compound:
# lookup: composite z-score of COCCOC(=O)N1C(=O)[C@@]2(c3cc(C#CCC(C(=O)OC)C(=O)OC)ccc31)[C@H](C(=O)N1CCN(c3ncccn3)CC1)[C@H]1C(=O)O[C@H](c3ccccc3)[C@H](c3ccccc3)N1[C@@H]2c1ccc(O)cc1
0.117

----------
# Experimental Target: Pro-neuregulin-1, membrane-bound isoform (Homo sapiens) (UniProt Q02297)
# Sequence (Q02297 whole entry, looked up, canonical isoform): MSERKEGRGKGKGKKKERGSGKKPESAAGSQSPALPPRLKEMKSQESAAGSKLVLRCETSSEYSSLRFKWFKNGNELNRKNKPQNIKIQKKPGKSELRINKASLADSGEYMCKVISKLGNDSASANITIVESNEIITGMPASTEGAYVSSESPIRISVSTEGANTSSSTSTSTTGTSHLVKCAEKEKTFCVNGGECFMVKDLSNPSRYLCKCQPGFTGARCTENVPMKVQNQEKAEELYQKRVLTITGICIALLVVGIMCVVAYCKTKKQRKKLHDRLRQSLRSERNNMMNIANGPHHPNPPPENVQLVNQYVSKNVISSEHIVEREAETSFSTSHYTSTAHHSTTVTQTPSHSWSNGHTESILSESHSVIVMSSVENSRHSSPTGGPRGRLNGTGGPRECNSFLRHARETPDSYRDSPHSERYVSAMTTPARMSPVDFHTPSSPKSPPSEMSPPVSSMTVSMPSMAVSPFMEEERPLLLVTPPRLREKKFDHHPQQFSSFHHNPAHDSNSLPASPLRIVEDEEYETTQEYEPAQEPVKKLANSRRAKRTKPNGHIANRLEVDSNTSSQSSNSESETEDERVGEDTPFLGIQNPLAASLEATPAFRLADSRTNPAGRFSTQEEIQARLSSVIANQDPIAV
# Experiment: NRG1 binders on small-molecule microarrays, primary screen, psychiatric disease protein project, biochemical, small-molecule microarray, fluorescence 635/667 (AID 1075);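 also: score combines 667 nm spot fluorescence with signal to noise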
# Setup Conditions: NRG1 binding, 635 nm fluorescence, higher = more signal
Hi, to clarify the labels: Y covers composite z-score from 0.7 upward, N covers anything below 0.7.

Consider the worked cases shown below.
[[record]]
compound = "C[C@@H]1NC(=O)CC=C[C@@H](C)[C@@H]2C=C[C@H](O)[C@@H](COC(=O)[C@H](C)NC(=O)CC=C[C@@H](C)[C@@H]3C=C[C@H](O)[C@@H](COC1=O)O3)O2"
discrete_label = "N"

[[record]]
compound = "C=CCC(OC(C)=O)[C@@H]1[C@@H](N(Cc2cccc3ccccc23)C(=O)c2ccc(C)cc2)c2cc(OCCCO)ccc2N1C(=O)c1ccc(-c2ccccc2)cc1 (some centres not stated)"
discrete_label = "N"


# evaluate next
Threshold query (composite z-score >= 0.7) on C=CCNC(=O)[C@H]1[C@@H]2C(=O)O[C@@H](c3ccccc3)[C@@H](c3ccccc3)N2[C@@H](c2ccccc2OCCO)[C@]12C(=O)N(C(=O)OCCOC)c1ccc(C#CCC(C(=O)OC)C(=O)OC)cc12
Y

----------
# Test system: Lefty1
# Experiment: Lefty1 binders on small-molecule microarrays, primary screen, biochemical, small-molecule microarray, 635/667 nm fluorescence (AID 1139)
# Setup Conditions: small-molecule microarray binding, fluorescence 635/667; higher = more signal
Each item that follows carries a reported composite z-score.
Would you mind answering with just the numeric figure?

[[record]]
cpd_smiles = "CCCC=C(CCC)[C@@H](NC(=O)c1ccccc1)c1ccccc1"
observable = "composite z-score"
endpoint_result = -0.614

[[record]]
cpd_smiles = "C=CCN1C(=O)[C@@]2(Cc3ccccc3)N=C(c3ccc(OCCCO)cc3)O[C@H]2c2ccccc21"
observable = "composite z-score"
endpoint_result = 0.398

[[record]]
cpd_smiles = "CC/C=C/C(=O)N(C[C@@H]1CCCO1)[C@@H]1CC(C(=O)NCCO)=C[C@H](Oc2c(I)cc(CO)cc2OC)[C@H]1O"
observable = "composite z-score"
endpoint_result = 0.0903

[[record]]
cpd_smiles = "CC[C@@H]1C=C(C(=O)O)[C@H](c2ccccc2)N1S(=O)(=O)c1ccc([N+](=O)[O-])cc1"
observable = "composite z-score"
endpoint_result = -0.177

[[record]]
cpd_smiles = "CC(=O)NCCCC[C@@H]1NC(=O)[C@@H]2C[C@H](C(=O)NCCCCCNC(=O)CS)[C@H](c3ccc(O)cc3)N2C1=O"
observable = "composite z-score"
endpoint_result = 1.4


I have this molecule here, COCCCNC(=O)[C@@]1(c2ccc([N+](=O)[O-])cc2)CC(=O)N(C2CCCCC2)[C@@H]1c1ccc(CO)cc1 , and I need its recorded composite z-score.
-1.4

GET /values?readout=composite z-score&item= Cc1ccc(N2C(=O)c3ccccc3[C@](C)(C(=O)NCC(C)C)[C@@H]2c2ccc(CO)cc2)nc1
-0.589

What does the record list as composite z-score for CCOC(=O)C1=CC[C@@H](c2ccc(-c3ccc(OCc4ccccc4)cc3)c(OC)c2)N(S(=O)(=O)c2ccc(C)cc2)[C@H]1c1ccccc1 ?
0.329

----------
# Experiment: small-molecule microarray binders of probe aWnt5a, primary screen, biochemical, biotinylated probe, 635/667 nm fluorescence (AID 1113);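 also: score merges 667 nm fluorescence intensity with signal-to-noise per printed feature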
# Setup Conditions: higher = more signal
Observable: composite z-score
Just the number, please, no unit after it.

Example compounds with recorded composite z-score:
[[record]]
cpd_smiles = "C=CCN1C(=O)[C@@]2(O[C@@H](CCn3cc([C@H](O)c4ccccc4)nn3)[C@H]([Si](C)(C)c3ccc(OC)cc3)[C@H]2C)c2cc(N3CCOC3=O)ccc21"
observable = "composite z-score"
endpoint_result = -0.0754

[[record]]
cpd_smiles = "O=C1O[C@H](c2ccccc2)[C@H](c2ccccc2)N2[C@H]1[C@@H](C(=O)NC[C@H](O)c1ccccc1)[C@]1(C(=O)Nc3ccc(C#CC4=CCCCC4)cc31)[C@H]2c1ccc(OCCO)cc1"
observable = "composite z-score"
endpoint_result = -0.0519


From here, focus on the item given below.
Would you kindly share the measured composite z-score for COCC(=C=CC[C@H](O)c1ccc(OCCO)cc1)C[C@H](O)c1ccccn1 ?
-0.186

----------
Catalogue of compounds with associated composite z-score
# Experimental Target: Torsin-1A-interacting protein 2 (Homo sapiens)
# Experiment: LULL1 binders on small-molecule microarray, primary screen, cell lysate, human LULL1 lysate, 635/667 nm fluorescence (AID 1092);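 also: probe is lysate of COS7 cells overexpressing human LULL1; score merges per-feature 667 nm fluorescence with signal-to-noise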
# Setup Conditions: hLULL1 lysate binding, 635 nm fluorescence, higher = more signal

[[record]]
compound = "Cc1ccc(S[C@]2(C(=O)NCCCN(C)C)CC(=O)N(Cc3ccccc3)[C@@H]2c2ccc(CO)cc2I)cc1"
experimental_target = "Torsin-1A-interacting protein 2 (Homo sapiens)"
endpoint_result = 2.68

[[record]]
compound = "O=C1O[C@@H](c2ccccc2)[C@@H](c2ccccc2)N2[C@@H](c3ccccc3OCCO)[C@]3(C(=O)Nc4ccc(C#CC5=CCCCC5)cc43)[C@@H](C(=O)O)[C@H]12"
experimental_target = "Torsin-1A-interacting protein 2 (Homo sapiens)"
endpoint_result = 1.83

[[record]]
compound = "C=CCC(OC(C)=O)[C@@H]1[C@@H](N(Cc2ccc(-c3ccccc3)cc2)C(=O)c2ccc(-c3ccccc3)cc2)c2cc(OCCCO)ccc2N1C(=O)Cc1ccc(OC)cc1 (stereo partly drawn)"
experimental_target = "Torsin-1A-interacting protein 2 (Homo sapiens)"
endpoint_result = 0.669

[[record]]
compound = "CC(=O)Nc1ccc([C@H]2[C@H](C)CC[C@H]3C(=O)N4[C@@H](CC[C@@H](C)[C@@H]4c4ccc(NC(C)=O)cc4)C(=O)N32)cc1"
experimental_target = "Torsin-1A-interacting protein 2 (Homo sapiens)"
endpoint_result = 1.63

[[record]]
compound = "CCN1C(C)=C(C(=O)OC)[C@@H](c2ccccc2)N2C(=O)[C@@]3(C(=O)OC)O[C@@]12[C@@H]1C(=O)N(c2ccccc2)C(=O)[C@@H]13"
experimental_target = "Torsin-1A-interacting protein 2 (Homo sapiens)"
endpoint_result = 1.2


Give the measured composite z-score of C#CCCCON=C1C[C@@H](O)[C@@H](O)[C@@H]2[C@@H]3C(=O)N(Cc4ccc5c(c4)OCO5)C(=O)[C@@H]3CC[C@@H]12 .
0.852

Need composite z-score, item O=C1OCC=C[C@H]2OC34C=CCN(Cc5ccccc5)C(=O)[C@H]3N(CCCCCO)C(=O)[C@@H]4[C@@H]12 (stereo partly drawn)
1.06

Which composite z-score is reported for this compound? C=CC[C@]1(C(N)=O)N=C(c2ccc(OCCCO)cc2)O[C@H]1c1ccccc1CN=[N+]=[N-]
3.05
